Assay: ATG_CRE_CIS: Attagene CIS-FACTORIAL HepG2 Assay for human cAMP Responsive Element (CRE) binding protein 3 (AID 2282926)
Details: HepG2 CRE cis-reporter, Attagene multiplexed mRNA; actives raise or lower the signal
Activity calls are given as the source filed them. How the source made its calls: active means hit-call score of the fitted dose curve at least 0.9, where 1 is the maximum; inactive means score below 0.9.
measured.metric: outcome

>  <compound>
c1ccc(Nc2ccccc2)cc1

>  <result>
inactive

$$$$
>  <compound>
CCCN(CCC)C(=O)SCC

>  <result>
inactive

$$$$
>  <compound>
CCCCC(CC)CN1C(=O)C2C3C=CC(C3)C2C1=O (stereo not given)

>  <result>
inactive

$$$$
>  <compound>
CCOC(=O)C(C)Oc1ccc(Oc2cnc3cc(Cl)ccc3n2)cc1 (stereo not given)

>  <result>
inactive

$$$$
>  <compound>
CCCCOCCOCCOCc1cc2c(cc1CCC)OCO2

>  <result>
inactive

$$$$

* * *

Read-out: matrix metalloproteinase-10 (MMP10), MMP10 (gene 4319)
Assay: LTEA_HepaRG_MMP10: Life Technologies and Expression Analysis (LTEA) Assay for matrix metalloproteinase-10 (MMP10) using HepaRG (AID 2283517)
Settings: mRNA level, 48 h; actives raise or lower the signal
Calls of active or inactive are those of the source. Rule for the calls: active = hit-call score of the fitted dose curve at least 0.9, where 1 is the maximum; inactive = score below 0.9.
Classes used: TRUE (active), FALSE (inactive)

>  <molecule>
CCCN(CCC)c1c([N+](=O)[O-])cc(C(F)(F)F)c(N)c1[N+](=O)[O-]

>  <label>
FALSE

$$$$
>  <molecule>
O=C(c1ccc(O)cc1O)c1ccc(O)cc1O

>  <label>
FALSE

$$$$
>  <molecule>
C[C@]12C[C@H](O)[C@H]3[C@@H](CCC4=CC(=O)CC[C@@]43C)[C@@H]1CC[C@@H]2C(=O)CO

>  <label>
FALSE

$$$$
>  <molecule>
c1ccc(Nc2ccccc2)cc1

>  <label>
FALSE

$$$$
>  <molecule>
CCCCCCC(C)OC(=O)COc1nc(F)c(Cl)c(N)c1Cl (stereo not drawn)

>  <label>
FALSE

$$$$
>  <molecule>
CC(C)CCCCCCc1ccc(O)cc1

>  <label>
FALSE

$$$$
>  <molecule>
OB(O)O

>  <label>
FALSE

$$$$
>  <molecule>
CC(=O)[C@H]1CC[C@H]2[C@@H]3CCC4=CC(=O)CC[C@]4(C)[C@H]3CC[C@]12C

>  <label>
TRUE

$$$$
>  <molecule>
C=CCOC(Cn1ccnc1)c1ccc(Cl)cc1Cl (stereo not drawn)

>  <label>
TRUE

$$$$
>  <molecule>
CCOC(=O)C(C)Oc1ccc(Oc2nc3ccc(Cl)cc3o2)cc1 (stereo not drawn)

>  <label>
FALSE

$$$$
>  <molecule>
c1ccc2[nH]c(-c3cscn3)nc2c1

>  <label>
FALSE

$$$$
>  <molecule>
CCN(CC)C(=O)c1cccc(C)c1

>  <label>
FALSE

$$$$
>  <molecule>
O=C(O)c1ccccc1

>  <label>
FALSE

$$$$
>  <molecule>
CCCCOC(=O)[C@@H](C)Oc1ccc(Oc2ccc(C(F)(F)F)cn2)cc1

>  <label>
FALSE

$$$$
>  <molecule>
COCCO

>  <label>
FALSE

$$$$
>  <molecule>
O=C(c1ccccc1)C1CCCCC1

>  <label>
FALSE

$$$$
>  <molecule>
CCC(C)OC(=O)N1CCCCC1CCO (stereo not drawn)

>  <label>
FALSE

$$$$
>  <molecule>
CCOC(=O)NCCOc1ccc(Oc2ccccc2)cc1

>  <label>
TRUE

$$$$
>  <molecule>
CC1(C)C(C=C(Cl)Cl)C1C(=O)OCc1cccc(Oc2ccccc2)c1 (stereo not drawn)

>  <label>
FALSE

$$$$
>  <molecule>
CCCCOC(=O)C(C)Oc1ccc(Oc2ccc(C(F)(F)F)cn2)cc1 (stereo not drawn)

>  <label>
FALSE

$$$$
>  <molecule>
CCCCC(CC)CN1C(=O)C2C3C=CC(C3)C2C1=O (stereo not drawn)

>  <label>
FALSE

$$$$
>  <molecule>
CCCN(CCC)C(=O)SCC

>  <label>
FALSE

$$$$
>  <molecule>
O=C(Nc1ccc([N+](=O)[O-])cc1Cl)c1cc(Cl)ccc1O

>  <label>
TRUE

$$$$
>  <molecule>
CCNc1nc(N)nc(Cl)n1

>  <label>
FALSE

$$$$
>  <molecule>
Cc1nn(C)c(Oc2ccccc2)c1C=NOCc1ccc(C(=O)OC(C)(C)C)cc1

>  <label>
TRUE

$$$$
>  <molecule>
Oc1ccc(C(c2ccc(O)cc2)C(Cl)(Cl)Cl)cc1

>  <label>
TRUE

$$$$
>  <molecule>
O=C(O)C1(C(=O)Nc2ccc(Cl)cc2Cl)CC1

>  <label>
FALSE

$$$$
>  <molecule>
CCCOC(=O)NCCCN(C)C

>  <label>
FALSE

$$$$
>  <molecule>
CCCCOCCOCCOCc1cc2c(cc1CCC)OCO2

>  <label>
FALSE

$$$$
>  <molecule>
CCCCCOC(=O)COc1cc(N2C(=O)C3=C(CCCC3)C2=O)c(F)cc1Cl

>  <label>
FALSE

$$$$
>  <molecule>
COC(=O)c1ccccc1C(=O)O

>  <label>
FALSE

$$$$
>  <molecule>
CC(=O)S[C@@H]1CC2=CC(=O)CC[C@]2(C)[C@H]2CC[C@@]3(C)[C@@H](CC[C@@]34CCC(=O)O4)[C@H]12

>  <label>
TRUE

$$$$
>  <molecule>
CCN(Cc1c(F)cccc1Cl)c1c([N+](=O)[O-])cc(C(F)(F)F)cc1[N+](=O)[O-]

>  <label>
FALSE

$$$$

* * *

Read-out: adenosine kinase (ADK) gene, ADK (gene 132)
Experiment: LTEA_HepaRG_ADK: Life Technologies and Expression Analysis (LTEA) Assay for adenosine kinase (ADK) gene using HepaRG (AID 2283471)
Details: mRNA level, 48 h; actives raise or lower the signal
Activity calls are given as the source filed them. Rule for the calls: active = hit-call score of the fitted dose curve at least 0.9, where 1 is the maximum; inactive = score below 0.9.
Classes used: active, inactive

>  <compound>
O=C(Nc1ccc([N+](=O)[O-])cc1Cl)c1cc(Cl)ccc1O

>  <label>
active

$$$$
>  <compound>
CC(=O)S[C@@H]1CC2=CC(=O)CC[C@]2(C)[C@H]2CC[C@@]3(C)[C@@H](CC[C@@]34CCC(=O)O4)[C@H]12

>  <label>
active

$$$$
>  <compound>
C#C[C@]1(O)CC[C@H]2[C@@H]3CCC4=CC(=O)CC[C@@H]4[C@H]3CC[C@@]21CC

>  <label>
inactive

$$$$
>  <compound>
C[C@]12C[C@H](O)[C@H]3[C@@H](CCC4=CC(=O)CC[C@@]43C)[C@@H]1CC[C@@H]2C(=O)CO

>  <label>
inactive

$$$$
>  <compound>
CCCN(CCC)C(=O)SCC

>  <label>
inactive

$$$$
>  <compound>
CCSC(=O)N(CC(C)C)CC(C)C

>  <label>
inactive

$$$$
>  <compound>
CCC(C)OC(=O)N1CCCCC1CCO (stereo unspecified)

>  <label>
inactive

$$$$
>  <compound>
COC(=O)c1ccc(I)cc1S(=O)(=O)NC(=O)Nc1nc(C)nc(OC)n1

>  <label>
inactive

$$$$
>  <compound>
CCNc1nc(N)nc(Cl)n1

>  <label>
inactive

$$$$
>  <compound>
S=C([S-])NCCNC(=S)[S-].[Mn+2]

>  <label>
active

$$$$
>  <compound>
CC1(C)C(C=C(Cl)Cl)C1C(=O)OCc1cccc(Oc2ccccc2)c1 (stereo unspecified)

>  <label>
inactive

$$$$
>  <compound>
C=CCOC(Cn1ccnc1)c1ccc(Cl)cc1Cl (stereo unspecified)

>  <label>
inactive

$$$$
>  <compound>
c1ccc(Nc2ccccc2)cc1

>  <label>
inactive

$$$$
>  <compound>
O=C(c1ccccc1)C1CCCCC1

>  <label>
inactive

$$$$
>  <compound>
CCOC(=O)C(C)Oc1ccc(Oc2cnc3cc(Cl)ccc3n2)cc1 (stereo unspecified)

>  <label>
inactive

$$$$
>  <compound>
CCN(CC)C(=O)c1cccc(C)c1

>  <label>
inactive

$$$$
>  <compound>
CCCOC(=O)NCCCN(C)C

>  <label>
inactive

$$$$
>  <compound>
CCCCC(CC)CN1C(=O)C2C3C=CC(C3)C2C1=O (stereo unspecified)

>  <label>
inactive

$$$$
>  <compound>
COC(=O)c1ccccc1C(=O)O

>  <label>
inactive

$$$$
>  <compound>
CCCN(CCC)c1c([N+](=O)[O-])cc(C(F)(F)F)c(N)c1[N+](=O)[O-]

>  <label>
inactive

$$$$
>  <compound>
C[C@]12CC[C@@H]3c4ccc(O)cc4C[C@@H](CCCCCCCCCS(=O)CCCC(F)(F)C(F)(F)F)[C@H]3[C@@H]1CC[C@@H]2O (stereo partly specified)

>  <label>
inactive

$$$$
>  <compound>
CSC(=O)c1cccc2nnsc12

>  <label>
inactive

$$$$
>  <compound>
CCOC(=O)C(C)Oc1ccc(Oc2nc3ccc(Cl)cc3o2)cc1 (stereo unspecified)

>  <label>
inactive

$$$$
>  <compound>
CCCCCOC(=O)COc1cc(N2C(=O)C3=C(CCCC3)C2=O)c(F)cc1Cl

>  <label>
inactive

$$$$
>  <compound>
CCCCCCC(C)OC(=O)COc1nc(F)c(Cl)c(N)c1Cl (stereo unspecified)

>  <label>
inactive

$$$$
>  <compound>
c1ccc2[nH]c(-c3cscn3)nc2c1

>  <label>
inactive

$$$$
